# credit: patent US6214805A

- Test system: MA-104 cells
- assaySummary: Cytotoxicity graded by morphological change in MA-104 cells
- Type: cell-based, African green monkey
- conditionSet: MA-104 cells (Table 8); read-out: IC50 Conc. for 50% cytotoxicity grade by morphological change
- Method: Embryonic African green monkey kidney cells (MA-104) were obtained from BioWhittaker, Inc. (Walkersville, Md.). HEp-2 cells were propagated from a human epidermoid carcinoma of the larynx (American Type Culture Collection, ATCC; Rockville, Md.). The cells were grown in minimal essential medium. (MEM, Gibco-BRL, Gaitherburg, Md.) supplemented with 0.1% NaHCO3 and 10% fetal bovine serum (FBS, Hyclone Laboratories, Logan Utah.). […] Determined in MA-104 cells, A2 strain RSV
pIC50: −log10 of the molar value.
A collection of substances and their measured pIC50

Before answering, review these 2 worked examples.
# substance, attributeMeasured, observedMeasurement
measured = [
    ("AsAsAsAATGGGGCAAAsTsAsA (AAAAATGGGGCAAATAA; antisense; DNA, linkages s3 o10 s3 (s phosphorothioate, o phosphodiester), methylation of C not given here) [MP320, gapmer antisense oligonucleotide, three thiophosphorylated linkages at both termini]", "pIC50", "< 5.00"),
    ("AsAsAsAsAsTsGsGsGsGsCsAsAsAsTsAsA (AAAAATGGGGCAAATAA; antisense; DNA, all phosphorothioate, methylation of C not given here) [MP273]", "pIC50", "< 5.00"),
]

Request the reported pIC50 associated with 2-5A-L2-AsAsAsAATGGGGCAAAsTsAsA [MP351] < 5.00
